The measured values listed here are drawn from patent US12252488B2.

Could you please report measured IC50 for the items listed next?
- System under test: HPK1 (Homo sapiens, UniProt Q92918)
- Construct: purchased Invitrogen
- Sequence (Q92918 whole entry): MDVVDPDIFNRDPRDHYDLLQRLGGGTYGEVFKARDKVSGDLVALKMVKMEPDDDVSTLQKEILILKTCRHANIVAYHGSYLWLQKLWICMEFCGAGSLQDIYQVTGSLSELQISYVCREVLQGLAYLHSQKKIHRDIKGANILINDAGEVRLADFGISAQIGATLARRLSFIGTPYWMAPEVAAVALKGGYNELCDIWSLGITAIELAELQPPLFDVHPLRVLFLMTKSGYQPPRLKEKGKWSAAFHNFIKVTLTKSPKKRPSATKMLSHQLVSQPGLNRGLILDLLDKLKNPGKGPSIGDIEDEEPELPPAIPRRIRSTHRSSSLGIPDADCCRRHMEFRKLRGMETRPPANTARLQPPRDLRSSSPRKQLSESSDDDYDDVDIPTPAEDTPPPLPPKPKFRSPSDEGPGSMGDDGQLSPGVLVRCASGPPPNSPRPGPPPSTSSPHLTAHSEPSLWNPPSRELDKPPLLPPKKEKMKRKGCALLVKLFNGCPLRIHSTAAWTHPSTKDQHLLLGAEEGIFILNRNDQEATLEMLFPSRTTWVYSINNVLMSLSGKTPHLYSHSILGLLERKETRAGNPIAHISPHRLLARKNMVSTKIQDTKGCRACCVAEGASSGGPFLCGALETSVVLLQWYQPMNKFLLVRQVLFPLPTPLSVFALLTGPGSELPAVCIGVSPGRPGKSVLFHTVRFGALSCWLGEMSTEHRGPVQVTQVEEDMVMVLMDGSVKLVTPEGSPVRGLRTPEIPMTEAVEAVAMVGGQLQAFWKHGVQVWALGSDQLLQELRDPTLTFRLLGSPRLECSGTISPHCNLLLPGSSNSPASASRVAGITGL
- Protocol details: HPK1 biochemical enzyme assay (microfluidic mobility shift assay)
- Condition summary: 1000 uM (1 mM) ATP; Caliper mobility shift; 1.5 nM HPK1; 30 min preincubation; read-out: HPK1 1000UMATP caliper IC50

Just so you know, measured IC50 for Cc1n[nH]c2cc(F)c(-c3cc(Nc4ccc(N5CCNCC5)cn4)c4c(=O)[nH]ccc4n3)cc12 came out at ≤ 100 nM

Noted for COc1ccc(F)c(-c2cc(Nc3ccc(N4CCC(O)CC4)cn3)c3c(=O)[nH]ccc3n2)c1 : its IC50 reads 100 to 1000 nM

Lab book: IC50 of O=c1[nH]ccc2nc(-c3c(F)ccc4c3CCNC4)cc(Nc3ccc(N4CCC(O)CC4)cn3)c12 noted as ≤ 100 nM

The compound O=C(c1ccc(-c2cc(Nc3ccc(N4CCC(O)CC4)cn3)c3c(=O)[nH]ccc3n2)c(F)c1)N1CCCC1 showed IC50 equal to ≤ 100 nM

IC50 for CCNC(=O)C(C)(C)c1ccc(Nc2cc(-c3cc(C(C)C)ccc3F)nc3cc[nH]c(=O)c23)nc1 is 100 to 1000 nM

Note to self: IC50 recorded for CN1CCN(c2ccc(Nc3cc(-c4ccc(C(=O)N5CC6CCC5CC6)cc4F)nc4cc[nH]c(=O)c34)nc2)CC1 was 100 to 1000 nM

compound Cn1ccnc1N1CCN(c2cc(Nc3ccc(N4CCC(O)CC4)cn3)c3c(=O)[nH]ccc3n2)CC1 , IC50 observed: ≤ 100 nM

IC50 for CC(C)c1cc(Nc2ccc(S(C)(=O)=O)cn2)c2c(=O)[nH]ccc2n1 is 100 to 1000 nM

Noted for COc1cc(-c2cc(Nc3ccc(N4CCC(F)(F)CC4)cn3)c3c(=O)[nH]ccc3n2)c(F)cc1C(=O)N1CCCCC1 : its IC50 reads 100 to 1000 nM

Measured IC50 of COc1cc(F)c(-c2cc(Nc3ccc(N4CCC(O)CC4)cn3)c3c(=O)[nH]ccc3n2)cc1CN1CCCCC1 : ≤ 100 nM

Lab book: IC50 of O=C(Nc1ccc(-c2cc(Nc3ccc(N4CCC(O)CC4)cn3)c3c(=O)[nH]ccc3n2)c(F)c1)[C@@H]1C[C@H]2CC[C@@H]1C2 (racemic) [I-266] noted as ≤ 100 nM

According to the records, this compound CC(C)c1ccc(F)c(-c2cc(Nc3ccc(N4CCNCC4)cn3)c3c(=O)[nH]ccc3n2)c1 displays IC50 of ≤ 100 nM

Lab note: measured IC50 of Cc1c[nH]c(=O)c2c(Nc3ccc(N4CCC(O)CC4)cn3)cc(-c3ccc(C(=O)N4CCCCC4)cc3F)nc12 was 100 to 1000 nM

---

The compounds below have reported IC50 for HPK1 (Homo sapiens, UniProt Q92918).

Query COc1cc(-c2cc(Nc3ccc(N4CCC(O)CC4)cn3)c3c(=O)[nH]ccc3n2)c(F)cc1CN(C)C yields IC50 of 100 to 1000 nM

// IC50 value for O=C1Cc2cc(-c3cc(Nc4ccc(N5CCC(O)CC5)cn4)c4c(=O)[nH]ccc4n3)cnc2N1 : ≤ 100 nM

COC1CCN(C(=O)c2ccc(-c3cc(Nc4ccc(N5CCC(O)CC5)cn4)c4c(=O)[nH]ccc4n3)c(F)c2)CC1 yielded IC50 of ≤ 100 nM

Per the records, this compound ( Cc1c[nH]c(=O)c2c(Nc3ccc(N4CCC(O)CC4)cn3)cc(C(C)C)nc12 ) has IC50 equal to > 1000 nM
